Attribution: patent US10683282B2

Molecular target: mLK1/MAP3K9 (Homo sapiens)
Sequence (P80192 whole entry): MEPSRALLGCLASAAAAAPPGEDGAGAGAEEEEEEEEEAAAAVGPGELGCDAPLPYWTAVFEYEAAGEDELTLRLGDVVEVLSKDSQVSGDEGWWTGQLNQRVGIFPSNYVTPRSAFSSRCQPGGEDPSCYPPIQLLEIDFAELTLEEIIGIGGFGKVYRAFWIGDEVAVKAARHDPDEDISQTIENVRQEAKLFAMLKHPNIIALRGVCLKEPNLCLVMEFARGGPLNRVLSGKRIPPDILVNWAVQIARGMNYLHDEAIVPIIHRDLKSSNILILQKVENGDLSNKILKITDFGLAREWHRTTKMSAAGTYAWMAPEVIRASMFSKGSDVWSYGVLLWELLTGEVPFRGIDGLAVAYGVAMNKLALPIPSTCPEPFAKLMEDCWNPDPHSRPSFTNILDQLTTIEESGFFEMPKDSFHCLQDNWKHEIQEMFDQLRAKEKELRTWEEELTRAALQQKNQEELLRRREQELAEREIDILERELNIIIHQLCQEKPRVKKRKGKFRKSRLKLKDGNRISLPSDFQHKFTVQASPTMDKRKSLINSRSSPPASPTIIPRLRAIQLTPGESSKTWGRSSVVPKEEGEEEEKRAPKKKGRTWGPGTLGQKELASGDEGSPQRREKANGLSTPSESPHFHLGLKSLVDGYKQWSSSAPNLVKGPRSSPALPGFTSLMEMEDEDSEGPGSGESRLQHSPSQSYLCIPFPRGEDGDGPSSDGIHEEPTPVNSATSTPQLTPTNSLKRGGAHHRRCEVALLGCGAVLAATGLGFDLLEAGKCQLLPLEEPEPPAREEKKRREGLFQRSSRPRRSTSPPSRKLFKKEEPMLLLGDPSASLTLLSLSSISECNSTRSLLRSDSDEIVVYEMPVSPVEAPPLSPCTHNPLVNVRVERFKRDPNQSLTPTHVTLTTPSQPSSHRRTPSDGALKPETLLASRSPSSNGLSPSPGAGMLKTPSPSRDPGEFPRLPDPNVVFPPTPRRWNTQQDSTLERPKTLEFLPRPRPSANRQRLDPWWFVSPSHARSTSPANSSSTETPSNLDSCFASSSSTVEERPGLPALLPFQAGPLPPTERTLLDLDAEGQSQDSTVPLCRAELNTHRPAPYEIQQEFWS
Assay: Kinase screening, HotSpot assay (Reaction Biology)
endpoint: pIC50
FYI, pIC50 means -log10 of a concentration in mol per litre.

Reported pIC50 of Cc1cnc(Nc2ccc(OCCN3CCCC3)cc2)nc1NCc1ccco1 : 6.83

* * *

System: Ba/F3 FLT3-ITD
Assay: Ba/F3 FLT3-ITD growth inhibition
Type: cell-based
Details: Ba/F3 FLT3-ITD cells
endpoint: GI50 (nM)
Field format: number, assumed nM, no unit text.

Below, each entry is followed by its recorded GI50 result.
structure_smiles	unit_abbrev	readout_value
FC(F)(F)c1cnc(Nc2ccc(OCCN3CCCC3)cc2)nc1NCc1ccco1	nM	558
Clc1cnc(Nc2ccc(OCCN3CCCC3)cc2)nc1NCc1ccco1	nM	42
Cc1cnc(Nc2ccc(OCCN3CCCC3)cc2)nc1NCc1ccco1	nM	92

# context switch: different molecule, same GI50
Reported GI50 of Fc1cnc(Nc2ccc(OCCN3CCCC3)cc2)nc1NCc1ccco1 : 178
